// data source = the supplement of paper PMC11208160

Assay: recombinant barcode read abundance after kanamycin selection (control-corrected) (log10(CPM+1)); higher = more efficient recombination; sequences stand for … in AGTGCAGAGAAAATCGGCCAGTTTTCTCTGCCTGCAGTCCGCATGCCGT…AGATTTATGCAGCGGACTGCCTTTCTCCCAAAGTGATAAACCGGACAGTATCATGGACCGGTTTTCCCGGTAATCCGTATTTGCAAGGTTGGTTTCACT; site = the 11-nt target;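 note: IS621 recombinase and bridge RNA in Escherichia coli cells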
Use yes when the recorded recombinant barcode read abundance (log10) is no lower than 0.1; use no when it is lower.

Observe how each entry below is paired with its result.
TAACCATCTTGGGTTCTAACCTGTTGCCT (site TATCCATCTAG)	no
CTAGACTCTTGGGTTCTAACCTGTTGCTG (site CTAGACTCTAA)	yes
GTGCAACCTTGGGTTCTAACCTGTTGCCT (site AGTGTCACTCC)	no

Is the recorded value of recombinant barcode read abundance (log10) equal to or greater than 0.1 for this sequence? GTGCACACTTGGGTTCTAACCTGTTGCCA (site GTGCACACTTG) yes

I'd appreciate it if you could say whether ACCCGTACTTGGGTTCTAACCTGTTGCCT (site ACCCGTACTAG) has recombinant barcode read abundance (log10) at least equal to 0.1. yes
